Test: Fatigue life of fulgide/fulgimide and chromene compound in polymerized methacrylate plate (Example 15)
Format: physicochemical
Conditions: 0.05 part, with chromene 2 (0.03 part)
Listed here are molecules together with their documented T1/2 of fulgide or fulgimide compound.
State the value with its unit after it.

The examples below pair each entry with its known result.
{"columns": ["molecule", "T1/2 of fulgide or fulgimide compound"],
 "data": [
  ["O=C1OC(=O)C2C1=C(C1CC1)c1c(sc3c1CCCC3)C21C2CCCC1CCC2 (stereo not shown) [(54)]", "134 h"],
  ["NC1CC1C1=C2C(=O)N(COC(=O)Cc3cccc4ccccc34)C(=O)C2C2(c3c1ccn3-c1ccccc1)C1(O)CCC2(O)CC1 (stereo not shown) [(21)]", "172 h"],
  ["CCC(C(=O)C[N+](=O)[O-])N1C(=O)C2=C(C3CC3)c3cc(OC)cc(OC)c3C3(C4CC5CC(C4)CC3C5)C2C1=O (stereo not shown) [(45)]", "160 h"]
]}

Let us move to another entry and its T1/2 of fulgide or fulgimide compound.
Given the molecule CCOC1CC1C1=C2C(=O)N(C(C#N)CC)C(=O)C2C2(c3sc(OC)c(C)c31)C1CC3CC(C1)CC2C3 (stereo not shown) [(36)] , what is its reported T1/2 of fulgide or fulgimide compound?
206 h

---

Listed here are compounds together with their documented Initial color density.
Experiment: Photochromic PMMA cast film: initial coloration density, maximum absorption wavelength and fatigue life in xenon fadeometer (Example 9);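 on Initial color density: initial color density is an absorbance value so the % unit is wrong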
Format: physicochemical
Settings: PMMA cast film 0.1 mm, xenon light, no stabilizer
Report as a plain number; the unit % is understood.

The examples below pair each entry with its known result.
{"columns": ["compound", "readout", "units", "meas_value"],
 "data": [
  ["CCC(C(=O)OCCc1ccc2ccccc2c1)N1C(=O)C2=C(C3CC3)c3ccsc3C3(C4CC5CC(C4)CC3C5)C2C1=O (stereo not drawn)", "Initial color density", "%", 0.69],
  ["COc1cc2c(c(OC)c1OC)C1(C3CCC1CC3)C1C(=O)OC(=O)C1=C2C1CC1 (stereo not drawn)", "Initial color density", "%", 0.92],
  ["CCSC1CC1C1=C2C(=O)N(C(CC)COC(=O)OC[N+](=O)[O-])C(=O)C2C2(c3scc([N+](=O)[O-])c31)C1CC3CC2CC(C)(C3)C1 (stereo not drawn)", "Initial color density", "%", 0.77],
  ["COC12CCCC(CCC1)C21c2c(Cl)csc2C(C2CC2CCc2ccccc2)=C2C(=O)N(CC(=O)NCCBr)C(=O)C21 (stereo not drawn)", "Initial color density", "%", 0.56],
  ["COC(=O)C(C)N1C(=O)C2=C(C3CC3OC(C)(C)C)c3cc(Cl)oc3C3(C4CCCC3(C)CC(C)(C)C4)C2C1=O (stereo not drawn)", "Initial color density", "%", 0.78],
  ["O=C(CCCCN1C(=O)C2=C(C3CC3)c3ccsc3C3(C4CC5CC(C4)CC3C5)C2C1=O)OCCc1ccc2ccccc2c1 (stereo not drawn)", "Initial color density", "%", 0.72]
]}

Given the compound CNC(=O)CCC(=O)CCN1C(=O)C2=C(C3CC3SC)c3ccn(C)c3C3(C4CCC3(C)CC4)C2C1=O (stereo not drawn) , what is its reported Initial color density?
0.69

Given the compound COC(=O)CN1C(=O)C2=C(C3CC3)c3ccsc3C3(C4CCC3CC4)C2C1=O (stereo not drawn) , what is its reported Initial color density?
0.85

Given the compound O=C1C2=C(C3CC3)c3sc4c(c3C3(C5CCCC3CCC5)C2C(=O)N1CCc1cccc2ccccc12)CCCC4 (stereo not drawn) , what is its reported Initial color density?
0.56

---

Assay: Photochromic PMMA cast film: initial coloration density, maximum absorption wavelength and fatigue life in xenon fadeometer (Example 9)
Type: physicochemical
Settings: PMMA cast film 0.1 mm, xenon light
Listed here are molecules together with their documented λmax.
Report as a plain number; the unit nm is understood.

The examples below pair each entry with its known result.
{"columns": ["molecule", "λmax, nm"],
 "data": [
  ["CCCCC1CC1C1=C2C(=O)N(C(C)(C)C#N)C(=O)C2C2(c3c(OC)cc(OC)cc31)C1CCC2(CCCC)CC1 (stereo not shown) [(17)]", 568],
  ["CCOC(=O)OCN1C(=O)C2=C(C3C(c4ccccc4)C3c3ccccc3)c3cc(-c4ccc(OC)cc4)sc3C3(C4CCCC3CCC4)C2C1=O (stereo not shown) [(31)]", 624],
  ["O=C1C2=C(C3CC3)c3cc(Br)sc3C3(C4CCCC3CCC4)C2C(=O)N1CCc1ccc2ccccc2c1 (stereo not shown) [(3)]", 545]
]}

Given the molecule Cc1cc2c(n1C)C1(C3CC4CC(F)(C3)CC1(F)C4)C1C(=O)N(C3CCC([N+](=O)[O-])CC3)C(=O)C1=C2C1CC1 (stereo not shown) [(40)] , what is its reported λmax?
532

---

Assay: Photochromic PMMA cast film: initial coloration density, maximum absorption wavelength and fatigue life in xenon fadeometer (Example 9);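 on Initial color density: initial color density is an absorbance value so the % unit is wrong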
Assay type: physicochemical
Settings: PMMA cast film 0.1 mm, xenon light, no stabilizer
Label key: true (1) means Initial color density under 0.8%; false (0) means Initial color density of 0.8% or more.

Could you please tell me whether Initial color density recorded for CCOC(=O)OCN1C(=O)C2=C(C3C(c4ccccc4)C3c3ccccc3)c3cc(-c4ccc(OC)cc4)sc3C3(C4CCCC3CCC4)C2C1=O (stereo not drawn) is less than 0.8%?
true (1)

Could you please tell me whether Initial color density recorded for CC1=C2C(=O)N(C[N+](=O)[O-])C(=O)C2C2(c3sc(C)cc31)C1CCC2CC1 (stereo not drawn) [(C), reference compound] is less than 0.8%?
true (1)

Could you please tell me whether Initial color density recorded for CCC(C#N)N1C(=O)C2=C(C3CC3[N+](=O)[O-])c3c(sc4c3CCCC4)C3(C4CCCC3(C)CCC4)C2C1=O (stereo not drawn) is less than 0.8%?
true (1)

Could you please tell me whether Initial color density recorded for COc1cc(OC)c2c(c1)C(C1C(C)(C)C1(C)C)=C1C(=O)N(Cc3ccc4ccccc4c3)C(=O)C1C21C2CCC1CC2 (stereo not drawn) is less than 0.8%?
true (1)

Could you please tell me whether Initial color density recorded for CCOc1cc2c(s1)C1(C3CCCC1CCC3)C1C(=O)OC(=O)C1=C2C1CC1 (stereo not drawn) is less than 0.8%?
false (0)

Could you please tell me whether Initial color density recorded for O=C1OC(=O)C2C1=C(C1CC1)c1cc(Br)sc1C21C2CC3CC(C2)CC1C3 (stereo not drawn) is less than 0.8%?
false (0)

Could you please tell me whether Initial color density recorded for CC(=O)CN1C(=O)C2=C(C3CC3C)c3cc(-c4ccccc4)sc3C3(C4CCC3CC4)C2C1=O (stereo not drawn) is less than 0.8%?
false (0)

Could you please tell me whether Initial color density recorded for CCOC(=O)C12CC3CC(C1)C1(c4c([N+](=O)[O-])csc4C(C4CC4Br)=C4C(=O)N(CC(F)(F)F)C(=O)C41)C(C(=O)OCC)(C3)C2 (stereo not drawn) is less than 0.8%?
true (1)

Could you please tell me whether Initial color density recorded for CCn1c2c(c3ccccc31)C(C1CC1C(=O)O)=C1C(=O)N(CC(=O)OCCC#N)C(=O)C1C21C2CC3CC(O)(C2)CC1(O)C3 (stereo not drawn) is less than 0.8%?
true (1)

---

Listed here are molecules together with their documented T1/2.
Assay: Photochromic PMMA cast film: initial coloration density, maximum absorption wavelength and fatigue life in xenon fadeometer (Example 9)
Format: physicochemical
Conditions: time for color density to fall to half of initial value; PMMA cast film 0.1 mm, xenon fadeometer, no stabilizer
Report as a plain number; the unit h is understood.

{"columns": ["molecule", "readout", "units", "meas_value"],
 "data": [
  ["O=C1OC(=O)C2C1=C(C1CC1)c1cc([N+](=O)[O-])sc1C21C2CC3CC(C2)CC1C3 (stereo not shown)", "T1/2", "h", 57]
]}

Given the molecule CCOc1cc2c(s1)C1(C3CCCC1CCC3)C1C(=O)OC(=O)C1=C2C1CC1 (stereo not shown) , what is its reported T1/2?
58

Given the molecule CC1=C2C(=O)N(CCCc3ccc4cc(N(C)C)ccc4c3)C(=O)C2C2(c3scc([N+](=O)[O-])c31)C1CC3CC(C1)CC2C3 (stereo not shown) [(E), reference compound] , what is its reported T1/2?
14

Given the molecule Cc1cc2c(n1C)C1(C3CC4CC(F)(C3)CC1(F)C4)C1C(=O)N(C3CCC([N+](=O)[O-])CC3)C(=O)C1=C2C1CC1 (stereo not shown) , what is its reported T1/2?
71

Given the molecule O=C1OC(=O)C2C1=C(C1CC1)c1c(oc3ccccc13)C21C2CCC1CC2 (stereo not shown) , what is its reported T1/2?
54

Given the molecule COC1CC1C1=C2C(=O)N(Cc3ccc4ccccc4c3)C(=O)C2C2(c3c1sc1ccccc31)C1CCC2CC1 (stereo not shown) , what is its reported T1/2?
81

Given the molecule CCn1c2c(c3ccccc31)C(C1CC1)=C1C(=O)OC(=O)C1C21C2CC3CC1CC(C)(C3)C2 (stereo not shown) , what is its reported T1/2?
55
